- MEASUREMENT TARGET: CB1 receptors (Rattus norvegicus, UniProt P20272)
- Sequence (P20272 whole entry): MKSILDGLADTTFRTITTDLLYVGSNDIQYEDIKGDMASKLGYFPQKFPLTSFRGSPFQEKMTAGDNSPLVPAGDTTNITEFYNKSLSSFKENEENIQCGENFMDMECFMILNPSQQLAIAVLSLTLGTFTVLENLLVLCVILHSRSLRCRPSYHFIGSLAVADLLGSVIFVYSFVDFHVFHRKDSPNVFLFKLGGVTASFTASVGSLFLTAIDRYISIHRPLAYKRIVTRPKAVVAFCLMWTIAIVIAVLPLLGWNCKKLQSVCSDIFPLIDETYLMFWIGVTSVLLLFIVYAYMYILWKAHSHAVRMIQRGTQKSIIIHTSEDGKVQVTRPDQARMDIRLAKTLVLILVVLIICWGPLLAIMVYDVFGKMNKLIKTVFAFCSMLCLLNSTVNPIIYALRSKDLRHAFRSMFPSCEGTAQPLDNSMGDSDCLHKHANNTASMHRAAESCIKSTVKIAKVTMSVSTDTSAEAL
- PROTOCOL TEXT: Inhibition of [3H]SR141716 binding in homogenates of rat cerebellum
- MEASUREMENT CONDITIONS: [3H]SR141716 radioligand
PARAMETER MEASURED: binding affinity at CB1 receptors (in words)

[[record]]
chemical_structure = "Clc1ccc(-c2cnnn2-c2ccc(Cl)cc2Cl)cc1"
recorded_measurement = "low affinity"

[[record]]
chemical_structure = "Clc1ccc(-c2cnnn2-c2ccc(Cl)cc2)cc1"
recorded_measurement = "low affinity"

[[record]]
chemical_structure = "O=C(NN1CCCCC1)c1nnn(-c2ccc(Cl)cc2)c1-c1ccc(Cl)cc1"
recorded_measurement = "low affinity"

